Source: PubChem BioAssay (NCATS)

tested-on: Cytochrome P450 1A2 (Homo sapiens)
measurement-description: p450-cyp1a2 (AID 410)
test-context: recombinant CYP1A2, luciferin-ME demethylation, luminescence; series mostly up to 25.6 µM
Inconclusive results are not listed. Calls of active or inactive are those of the source. The call rests on the fitted dose curve.
Write down one outcome, taken from active, inactive

See these solved cases before continuing.
**Q:** Tell me the recorded outcome of this test for Clc1cnccn1 .
**A:** inactive

**Q:** Also O=C(O)[C@@H](O)[C@@H](O)[C@@H](O[C@H]1O[C@@H](CO)[C@@H](O)[C@@H](O)[C@@H]1O)[C@@H](O)CO , if possible.
**A:** inactive

**Q:** Also C[C@@H](C(=O)O)c1ccc(C(=O)c2ccccc2)s1 , if possible.
**A:** active

**Q:** Also CN(C)CCn1nnnc1SCC1=C(C(=O)O)N2C(=O)[C@@H](NC(=O)Cc3csc(N)n3)[C@@H]2SC1 , if possible.
**A:** inactive

Further cases:
**Q:** Tell me the recorded outcome of this test for CC1(C)S[C@@H]2[C@H](NC(=O)C(N)c3ccccc3)C(=O)N2[C@H]1C(=O)O (some centres undefined) .
**A:** inactive

**Q:** Also CO/N=C(\C(=O)N[C@@H]1C(=O)N2C(C(=O)O)=C(COC(N)=O)CS[C@@H]12)c1ccco1 , if possible.
**A:** inactive

**Q:** Also CC(=O)OCC(=O)[C@@]1(O)CC[C@@H]2[C@H]3CCC4=CC(=O)C=C[C@]4(C)[C@]3(F)[C@@H](O)C[C@@]21C , if possible.
**A:** inactive

**Q:** Also C[C@@]12CC[C@H]3[C@@H](CCC4=CC(=O)CC[C@]43C)[C@H]1CC[C@H]2C(=O)CO , if possible.
**A:** inactive

====

Test system: ECU
measurement-description: qHTS profiling for inhibitors of Plasmodium falciparum proliferation (AID 504749); further: nearly all actives have a fitted effect of over 60% in size
test-context: P. falciparum in erythrocytes, SYBR Green DNA, 72 h; series mostly up to 12.8 µM
Inconclusive results are not listed. Activity calls are given as the source filed them. Calls come from the whole dose curve; as a rule, active = well fitted inhibition curve with a large enough effect; inconclusive = small, poorly fitted or top-dose-only effect; inactive = flat fitted curve, though single readings scatter. Peptide text beside a SMILES is read from it.
Write down one outcome, taken from t for active, f for inactive

**Q:** Tell me the recorded outcome of this test for C1CCN2C[C@@H]3C[C@@H](CN4CCCC[C@H]34)[C@H]2C1 .
**A:** f

**Q:** Also CC1(C)OC2CO[C@]3(COS(N)(=O)=O)OC(C)(C)OC3C2O1 (stereo partly specified) , if possible.
**A:** f

**Q:** Also CC1(C)S[C@@H]2[C@H](NC(=O)[C@@H](N)c3ccccc3)C(=O)N2[C@H]1C(=O)O[C@H]1OC(=O)c2ccccc21 , if possible.
**A:** f

**Q:** Also COC(=O)C(Cc1ccccc1)NC(=O)C(N)CC(=O)O (stereo not drawn) (H-Asp-Phe-OMe; configuration not given here) , if possible.
**A:** f

Further cases:
**Q:** Tell me the recorded outcome of this test for CCC(C)C(=O)OC1CC(O)C=C2C=CC(C)C(CCC(O)CC(O)CC(=O)O)C21 (stereo unspecified) .
**A:** f

**Q:** Also O=C(Nc1ccccc1)OC[C@H](CN1CCCCC1)OC(=O)Nc1ccccc1 , if possible.
**A:** f

**Q:** Also C=CCOc1ccccc1OC[C@H](O)CNC(C)C , if possible.
**A:** f

**Q:** Also CN[C@H]1[C@@H](O)[C@@H](NC)[C@@H]2O[C@@]3(O)C(=O)C[C@@H](C)O[C@H]3O[C@H]2[C@H]1O , if possible.
**A:** f

**Q:** Also CC(=O)O[C@H]1C[C@@]2(C)[C@H](C[C@@H](O)[C@H]3[C@@]4(C)CC[C@@H](O)[C@@H](C)[C@H]4CC[C@@]32C)C1=C(CCC=C(C)C)C(=O)O , if possible.
**A:** f

**Q:** Also COc1ccc(CC(N)C(=O)NC2C(CO)OC(n3cnc4c(N(C)C)ncnc43)C2O)cc1 (stereo unspecified) , if possible.
**A:** t

**Q:** Also CCN[C@@H]1C[C@H](N)[C@H](O[C@H]2OC(CN)=CC[C@H]2N)[C@@H](O)[C@H]1O[C@H]1OC[C@@](C)(O)[C@@H](NC)[C@@H]1O , if possible.
**A:** f
